test system: MS2 coat protein; assay: apparent KD of MS2 coat protein; higher = weaker reporter binding; settings: Eterna round: R107; input ligand: tryptophan 2.4 mM
Returns one of Y or N; Y when apparent KD of MS2 coat protein is >= 40 nM.

Sequence Entry: AUUUAUAGUUGUGAUACCAGACUUACAUGAGGAUCACCCAUGUUACUUAAAUGUUUUGAUGUCCCUUGGCAGCACUGUUUUUUUA [JR_Nu_ExcTheophyB_Sub029]
Target Of Assay: MS2 coat protein
Assigned Category: N

Inquiry: # bool: apparent KD of MS2 coat protein of AUUAAUUGUCGUGAUACCAGACAUACAUGAGGAUCACCCAUGUUAAGUAACAUUUUUUAUGUCCCUUGGCAGCACUUUUUAAUUA [JR_Nu_SSTheophyB_Sub017] >= 40 nM
Reply text: N

Inquiry: Also AGUCUUGAACGAAGGAGCGACGUACAUGAGGAUCACCCAUGUGGAGCGAAAGCUCCGUAACGUCAGGUAGGUCGCGUUCGAGACA [Omei Arginine B SS A v3] , if possible.
Reply text: N

Inquiry: Also GGGCCCGGCCGAAAGGCCGGGCCCGCUGAAGGAGCGGGAAAUAACCCAGGUAGGUCGCAGAGAUCCACAUGAGGAUCACCCAUGU [#26 Exclusion - Arginine A] , if possible.
Reply text: Y

Inquiry: Also AAGUAAACAUGAGCAAAGCUCAUGUGCGAAGGAGCGGCGGAAACGCCAGGUAGGUCGCGCACAUGAGCAUCAGCCAUGUGUAUCA [Omei Arginine B SS A v2] , if possible.
Reply text: N

Inquiry: Also UGUAAUGUGGGAAGGAGCGCAUACUUCACAUGAGGAUCACCCAUGUCAAGACGUGAGUCAGUGCAGGUAGGUCGCCUAGUUUAGA [Same State - Arginine B (Freestyle 18)] , if possible.
Reply text: Y

Inquiry: Also AAUAAUAACUGAAGGAGCGUCUAUAUUACAUGAGGAUCACCCAUGUUUAUAUGGUAUUAUAGACAGGUAGGUCGCAGAUUUUUUA [JR_SSArginiB_Sub016] , if possible.
Reply text: N
